Species: Rattus norvegicus
methodDescription: DrugMatrix - Regimen: Daily Repeat
Type: toxicity, organism-based, Sprague-Dawley
Set-up: regimen Daily Repeat, gender Male, age 6-8 weeks
testSettings: in vivo, po, 0 mg/kg, 72 h, tissue Blood, route oral GAVAGE, dose level Control, time 3 day, […]
measureName: NUCLEATED RED BLOOD CELLS

In the examples that follow, each entry is paired with its recorded NUCLEATED RED BLOOD CELLS.
CO[C@H]1/C=C/O[C@@]2(C)Oc3c(C)c(O)c4c(O)c(c(/C=N/N5CCN(C6CCCC6)CC5)c(O)c4c3C2=O)NC(=O)/C(C)=C\C=C\[C@H](C)[C@H](O)[C@@H](C)[C@@H](O)[C@@H](C)[C@H](OC(C)=O)[C@@H]1C [RIFAPENTINE] | 0 /100WBC
CC(C)(C)NC(=O)[C@H]1CC[C@H]2[C@@H]3CC[C@H]4NC(=O)C=C[C@]4(C)[C@H]3CC[C@]12C [FINASTERIDE] | 0 /100WBC
C[C@@H]1C[C@H]2[C@@H]3CCC4=CC(=O)C=C[C@]4(C)[C@@]3(F)[C@@H](O)C[C@]2(C)[C@@]1(O)C(=O)CO [DEXAMETHASONE] | 0 /100WBC
COc1cc([C@@H]2c3cc4c(cc3[C@@H](O[C@@H]3O[C@@H]5CO[C@@H](C)O[C@H]5[C@H](O)[C@H]3O)[C@H]3COC(=O)[C@H]23)OCO4)cc(OC)c1O [ETOPOSIDE] | 0 /100WBC
COc1cc(N)c(Cl)cc1C(=O)NC1CCN(CCCOc2ccc(F)cc2)CC1OC (stereo unspecified) [CISAPRIDE] | 0.33 /100WBC

Record Clc1ccc(COC(Cn2ccnc2)c2ccc(Cl)cc2Cl)cc1 (stereo unspecified) [ECONAZOLE] , field NUCLEATED RED BLOOD CELLS: 0 /100WBC

====

Organism: Rattus norvegicus
methodDescription: DrugMatrix - Regimen: Daily Repeat
Assay type: toxicity, organism-based, Sprague-Dawley
Design: regimen Daily Repeat, gender Male, age 6-8 weeks
testSettings: in vivo, po, […], 72 h, tissue Blood, route oral GAVAGE, dose 7.5 mg/Kg, dose level High, time 3 day, vehicle 100 % SALINE
measureName: ABSOLUTE LYMPHOCYTE (cells/µL)
The figure you give is taken to be in cells/µL; do not add the unit.

Lab note: Nc1ncnc2c1ncn2[C@@H]1O[C@H](CO)[C@@H](O)[C@H]1F gave ABSOLUTE LYMPHOCYTE of 9970

====

Organism: Rattus norvegicus
methodDescription: DrugMatrix - Regimen: Daily Repeat
Type: toxicity, organism-based, Sprague-Dawley
Set-up: regimen Daily Repeat, gender Male, age 6-8 weeks
testSettings: in vivo, po, 0 mg/kg, 72 h, tissue Plasma, route oral GAVAGE, dose level Control, time 3 day, vehicle .5 % CMC
CARBON DIOXIDE reference
Output spec: scalar in mmol/L, unitless text.

// known answers, use as guide
CN(C)[C@@H]1C(O)=C(C(N)=O)C(=O)[C@@]2(O)C(O)=C3C(=O)c4c(O)ccc(Cl)c4[C@@](C)(O)[C@H]3C[C@@H]12 | 24.83
O=C1Nc2ccc(Cl)cc2C(c2ccccc2Cl)=NC1O (stereo not given) | 25
COC1=C(OC)C(=O)C(CCCCCCCCCCO)=C(C)C1=O | 29.5

Recorded CARBON DIOXIDE (compound O=C1C(CC[S+]([O-])c2ccccc2)C(=O)N(c2ccccc2)N1c1ccccc1 (stereo not given) ): 25

The reported CARBON DIOXIDE of the compound CN/C(=N/CCSCc1nc[nH]c1C)NC#N was 29.5
